read-out: Monokine induced gamma interferon (MIG), CXCL9 (gene 4283); assay: BSK_hDFCGF_MIG: BioMAP Diversity Plus: hDFCGF Assay for Monokine induced gamma interferon (MIG) Biomarker Activity (AID 2283063); conditions: primary human foreskin fibroblasts; actives raise or lower the signal
Calls of active or inactive are those of the source. How the source made its calls: active means hit-call score of the fitted dose curve at least 0.9, where 1 is the maximum; inactive means score below 0.9.
Measurement Label: AC50

Some solved entries appear below for comparison.
> print(dat)
                           structure.string    value.reported
1  Cc1ncc([C@@H](CCCCCCc2ccc3c(n2)NCCC3)CC(=O)O)cn1          inactive
2             O=C(O)[C@H](O)[C@@H](O)C(=O)O          inactive
3  C[C@]12C=CC(=O)C=C1CC[C@H]1[C@@H]3C[C@@H](O)[C@](O)(C(=O)CO)[C@@]3(C)C[C@H](O)[C@@]12F          inactive
4  NC(=O)N(O)[C@@H]1COc2cc(OCc3ccccc3)ccc21          inactive
5                   CCc1ccc(O)c(C(C)(C)C)c1  32.6 µM (active)
6                 CC1(C)C(=O)N(Cl)C(=O)N1Cl          inactive
7  O=C(O)c1cccc(C[C@@H]2COc3ccc(OCc4nc5cc(F)ccc5s4)cc3[C@@H]2O)c1          inactive
8                              COS(C)(=O)=O          inactive

Any idea what AC50 was measured for CC(C)C(=O)Nc1ccc([N+](=O)[O-])c(C(F)(F)F)c1 ?
inactive

Look up AC50: OCc1ccccc1
inactive

Looking for the measured AC50 of O=C(NO)C1(NS(=O)(=O)c2ccc(Oc3ccc(F)cc3)cc2)CCOCC1 , can you help?
inactive

All figures here come from PubChem BioAssay (EPA / NIEHS).
